setup.conditions: in ethyl acetate, 313.15 K
assay.readout: solubility (mole fraction)
Reply briefly: the number, and no unit.

*Q* I am curious: what solubility (mole fraction) value has been reported for N#CC(c1ccc(Cl)cc1)c1c(Cl)cc(-n2ncc(=O)[nH]c2=O)cc1Cl (stereo unspecified) ?
*A* 0.0157

* * *

setup.conditions: in toluene, 313.15 K
assay.readout: solubility (mole fraction)
Response field accepts a number only; no unit should be typed.

*Q* For the molecule N#CC(c1ccc(Cl)cc1)c1c(Cl)cc(-n2ncc(=O)[nH]c2=O)cc1Cl (stereo unspecified) , what solubility (mole fraction) is on record?
*A* 0.00162

* * *

setup.conditions: in n-propanol, 288.15 K
assay.readout: solubility (mole fraction)
API note: the answer field is a bare number with no unit suffix.

*Q* Sample N#CC(c1ccc(Cl)cc1)c1c(Cl)cc(-n2ncc(=O)[nH]c2=O)cc1Cl (stereo unspecified) — what was its solubility (mole fraction)?
*A* 0.00146

* * *

setup.conditions: in ethanol, 308.15 K
assay.readout: solubility (mole fraction)
// no unit, no text: just the number

*Q* # query: solubility (mole fraction) of entry N#CC(c1ccc(Cl)cc1)c1c(Cl)cc(-n2ncc(=O)[nH]c2=O)cc1Cl (stereo unspecified)
*A* 0.00407

* * *

setup.conditions: in DMF, 293.15 K
assay.readout: solubility (mole fraction)
Give a plain numeric answer without units written out.

*Q* Which solubility (mole fraction) reading was recorded for the molecule N#CC(c1ccc(Cl)cc1)c1c(Cl)cc(-n2ncc(=O)[nH]c2=O)cc1Cl (stereo unspecified) ?
*A* 0.0309

* * *

setup.conditions: in isopropanol, 318.15 K
assay.readout: solubility (mole fraction)
Format: numeric value only, no unit, no commentary.

*Q* Param item = N#CC(c1ccc(Cl)cc1)c1c(Cl)cc(-n2ncc(=O)[nH]c2=O)cc1Cl (stereo unspecified) ; retrieve measured solubility (mole fraction).
*A* 0.00374

* * *

setup.conditions: in n-butanol, 298.15 K
assay.readout: solubility (mole fraction)
Write the number on its own, no unit after it.

*Q* Given the molecule N#CC(c1ccc(Cl)cc1)c1c(Cl)cc(-n2ncc(=O)[nH]c2=O)cc1Cl (stereo unspecified) , what is its reported solubility (mole fraction)?
*A* 0.0011

* * *

setup.conditions: in ethyl acetate, 298.15 K
assay.readout: solubility (mole fraction)
Reply: number alone, nothing else.

*Q* Dear colleague, I am looking for the recorded solubility (mole fraction) of the following compound: N#CC(c1ccc(Cl)cc1)c1c(Cl)cc(-n2ncc(=O)[nH]c2=O)cc1Cl (stereo unspecified)
*A* 0.00924

* * *

setup.conditions: in isopropanol, 308.15 K
assay.readout: solubility (mole fraction)

*Q* Any idea what its solubility (mole fraction) is? The molecule is N#CC(c1ccc(Cl)cc1)c1c(Cl)cc(-n2ncc(=O)[nH]c2=O)cc1Cl (stereo unspecified)
*A* 0.00251

* * *

setup.conditions: in n-propanol, 318.15 K
assay.readout: solubility (mole fraction)
I'd appreciate a reply containing only the number, no unit.

*Q* Need solubility (mole fraction), item N#CC(c1ccc(Cl)cc1)c1c(Cl)cc(-n2ncc(=O)[nH]c2=O)cc1Cl (stereo unspecified)
*A* 0.0046

* * *

setup.conditions: in methanol, 308.15 K
assay.readout: solubility (mole fraction)
Please give the numeric answer without any surrounding text.

*Q* Could you tell me which solubility (mole fraction) is on file for N#CC(c1ccc(Cl)cc1)c1c(Cl)cc(-n2ncc(=O)[nH]c2=O)cc1Cl (stereo unspecified) ?
*A* 0.00494
